Provenance of the data: PubChem BioAssay (NCI)

- Tested on: 786-0 renal
- Experiment Summary: NCI tumour cell line growth inhibition, 48 h
Outcome Measure: TGI

Given the entry CC1=CC(C)C(C)N(CC2=NCCN2)c2ccccc21 (centres undefined) , report its measured TGI. > 100 µM

Param item = `[N-]=[N+]=Nc1ncnc2c1sc(=S)n2-c1ccccc1` ; retrieve measured TGI. > 100 µM

Suppose we examine the compound `CC(=O)OCc1cc(=O)n2c([nH]c3ccccc32)c1C#N` ; what TGI value has been reported? > 100 µM

# TGI lookup, item `Cn1cc(C2=C(n3ccc4ccccc43)C(=O)NC2=O)c2ccccc21` > 25 µM

---

Provide the reported TGI of each item.
- Test system: MOLT-4 leukemia
- Experiment Summary: NCI tumour cell line growth inhibition, 48 h

Request - read-out TGI | tested on MOLT-4 leukemia | compound `N/N=c1\c2ccccc2c2ccc3c4ccccc4/c(=N\N)c3c12` > 100 µM

What reported TGI corresponds to `COc1ccc(CCc2nc3cc(-c4c(C)noc4C)ccc3n2CCN2CCOCC2)cc1` on MOLT-4 leukemia? > 100 µM

Checklist item: TGI tested on MOLT-4 leukemia, entry `O=C(Cc1cc(=O)oc2cc(O)ccc12)N/N=C/c1ccc(N(CCCl)CCCl)cc1` , value? 94.6 µM

Reported TGI for MOLT-4 leukemia, given `COc1ccc2c(c1OC)OC[C@@H](C1=CC(=O)C=C(O)C1=O)C2` ? 5.31 µM

Record CC1(O)C(C)(O)C(C)(O)C1(C)O (centres undefined) : what is its TGI with MOLT-4 leukemia? > 100 µM

Item `CN(C)c1nc2n(CCO)ccnc-2c(=O)n1` with MOLT-4 leukemia - TGI? > 100 µM

MOLT-4 leukemia / TGI / CCSC1=CC(Cc2ccc(OC)cc2)N(C(=O)OC)C1 (centres undefined) : value? > 100 µM

Reported TGI for MOLT-4 leukemia, given `COCCOc1nc(-c2ccccc2)nc2ccccc12` ? 70.4 µM

Lab note: need TGI with MOLT-4 leukemia for entry O=C1OC(Cl)C(N=P(c2ccccc2)(c2ccccc2)c2ccccc2)=C1Cl (centres undefined) , please look it up. > 100 µM

Form entry - test system: MOLT-4 leukemia; read-out: TGI; compound: `O=C1C(c2ccccc2)=[N+]([O-])c2ccc(Cl)cc21` 81.6 µM

Return TGI measured with MOLT-4 leukemia given this compound: `CN(C)N=Nc1cn[nH]c1C(N)=O` > 100 µM

State its TGI on MOLT-4 leukemia: `O=C([CH-]C(=O)C(F)(F)F)c1ccccc1.O=C([CH-]C(=O)C(F)(F)F)c1ccccc1.[O]=[U+2]=[O]` > 100 µM

# returns recorded TGI (system: MOLT-4 leukemia) for `CC(=O)/C(=C\c1c(-c2ccccc2)[nH]c2ccccc12)S(C)(=O)=O` > 100 µM

Give MOLT-4 leukemia TGI for `CC[C@@]1(C[C@H]2C[C@@]3(C(=O)OC)c4[nH]c5ccccc5c4CCN3C2=S)COC2(CCCCC2)O1` > 100 µM
